# assaySystem: IDO (SKOV3 human ovarian adenocarcinoma cells, IFN-γ induced) (Homo sapiens, UniProt P14902)
# Construct: IDO expression was induced in the SKOV3 cells by the addition of 500 ng/ml IFN-γ; endogenous in cells; host or cells: SKOV3 human ovarian adenocarcinoma cells, induced with IFN-γ
# Sequence (P14902 whole entry): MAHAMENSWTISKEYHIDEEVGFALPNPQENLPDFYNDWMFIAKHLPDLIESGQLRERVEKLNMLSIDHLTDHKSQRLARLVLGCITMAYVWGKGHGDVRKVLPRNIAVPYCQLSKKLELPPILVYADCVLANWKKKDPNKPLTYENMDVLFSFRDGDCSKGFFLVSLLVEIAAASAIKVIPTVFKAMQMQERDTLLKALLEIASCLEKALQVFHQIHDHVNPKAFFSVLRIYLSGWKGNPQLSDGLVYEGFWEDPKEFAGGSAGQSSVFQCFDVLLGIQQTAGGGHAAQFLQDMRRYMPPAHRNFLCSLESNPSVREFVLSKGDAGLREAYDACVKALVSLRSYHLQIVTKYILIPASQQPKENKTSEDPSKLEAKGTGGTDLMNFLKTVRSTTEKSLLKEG
# protocolDescription: SKOV3 Kynurenine cell based assay
# measurementParameters: IDO induced by 500 ng/ml IFN-γ, 500 μM L-tryptophan, 48 hours
measuredAttribute: SKOV3 Kynurenine cell based assay pIC50

Some compounds with recorded SKOV3 Kynurenine cell based assay pIC50:
> print(dat)
                                   compound                   result
1  CCc1cc(Br)ccc1S(=O)(=O)N1CCC(c2c[nH]c3ccc(OC)cc23)CC1  + (+ = pIC50 4.00-4.99)
2      CC(=O)N1CC=C(c2c[nH]c3ccc(C)cc23)CC1  + (+ = pIC50 4.00-4.99)
3  CC(=O)N1CCC(C2CNc3cc(F)ccc32)CC1 (stereo not drawn)    +− (+− = pIC50 <4.00)
4     COc1cccc2c(C3=CCN(C(C)=O)CC3)c[nH]c12    +− (+− = pIC50 <4.00)
5  Cc1[nH]c2ccccc2c1C1CCN(C(=O)C2CCCO2)CC1 (stereo not drawn)  + (+ = pIC50 4.00-4.99)

[in] Endpoint output: SKOV3 Kynurenine cell based assay pIC50 of `Cn1cnc(S(=O)(=O)N2CCC(c3c[nH]c4ccccc34)CC2)c1` . Value?
[out] +− (+− = pIC50 <4.00)

[in] Endpoint output: SKOV3 Kynurenine cell based assay pIC50 of `CC(C)S(=O)(=O)N1CCC(c2c[nH]c3cc(F)ccc23)CC1` . Value?
[out] + (+ = pIC50 4.00-4.99)

[in] Endpoint output: SKOV3 Kynurenine cell based assay pIC50 of `Cc1[nH]c2ccccc2c1C1CCN(S(=O)(=O)c2ccc([N+](=O)[O-])cc2)CC1` . Value?
[out] + (+ = pIC50 4.00-4.99)

----------
# assaySystem: Recombinant human TDO (Homo sapiens)
# Sequence (P48775 whole entry): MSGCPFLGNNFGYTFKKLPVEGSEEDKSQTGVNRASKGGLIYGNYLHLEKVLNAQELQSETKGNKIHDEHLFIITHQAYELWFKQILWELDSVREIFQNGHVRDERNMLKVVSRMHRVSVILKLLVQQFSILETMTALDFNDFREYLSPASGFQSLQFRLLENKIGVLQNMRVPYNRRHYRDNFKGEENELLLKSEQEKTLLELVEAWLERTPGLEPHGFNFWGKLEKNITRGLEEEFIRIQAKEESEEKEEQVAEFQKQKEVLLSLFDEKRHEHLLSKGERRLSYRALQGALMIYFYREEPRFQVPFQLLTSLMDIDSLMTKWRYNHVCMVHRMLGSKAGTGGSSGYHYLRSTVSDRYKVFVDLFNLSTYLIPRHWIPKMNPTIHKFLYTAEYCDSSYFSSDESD
# protocolDescription: hTDO biochemical coupled assay
# measurementParameters: 330 μM L-tryptophan, coupled with kynurenine formamidase
measuredAttribute: hTDO biochemical assay pIC50

> print(dat)
                                   molecule                           assaysystem             measuredattribute                   result
1  Cc1ccc2[nH]cc(C3CCN(S(=O)(=O)c4cccc(Cl)c4C)CC3)c2c1  Recombinant human TDO (Homo sapiens)  hTDO biochemical assay pIC50    +− (+− = pIC50 <4.00)
2  CC(=O)N1CCC(C2CNc3cc(F)ccc32)CC1 (centres unmarked)  Recombinant human TDO (Homo sapiens)  hTDO biochemical assay pIC50    +− (+− = pIC50 <4.00)
3      CC(=O)N1CC=C(c2c(C)[nH]c3ccccc23)CC1  Recombinant human TDO (Homo sapiens)  hTDO biochemical assay pIC50  + (+ = pIC50 4.00-4.99)
4         CC(=O)N1CC=C(c2c[nH]c3ncccc23)CC1  Recombinant human TDO (Homo sapiens)  hTDO biochemical assay pIC50  + (+ = pIC50 4.00-4.99)

----------
# assaySystem: IDO (SKOV3 human ovarian adenocarcinoma cells, IFN-γ induced) (Homo sapiens, UniProt P14902)
# Construct: IDO expression was induced in the SKOV3 cells by the addition of 500 ng/ml IFN-γ; endogenous in cells; host or cells: SKOV3 human ovarian adenocarcinoma cells, induced with IFN-γ
# protocolDescription: SKOV3 Kynurenine cell based assay
# measurementParameters: IDO induced by 500 ng/ml IFN-γ, 500 μM L-tryptophan, 48 hours
# Procedure: Exemplary compounds of the invention were prepared, and tested to determine their effect as TDO and/or IDO inhibitors. […] This coupled enzyme system allowed conversion of N-formylkynurenine produced by TDO or IDO activity to kynurenine which was then quantified by fluorescence following addition of Erhlich's Reagent The protocols for these are set out below. […]
measuredAttribute: SKOV3 Kynurenine cell based assay pIC50

Some compounds with recorded SKOV3 Kynurenine cell based assay pIC50:
> print(dat)
                                   compound                   result
1  CCN(CC)C(=O)N1CCC(c2c[nH]c3ccccc23)CC1 [Compound 211]  + (+ = pIC50 4.00-4.99)
2  CS(=O)(=O)N1CCC(c2c[nH]c3c(Cl)cccc23)CC1 [Compound 235]  + (+ = pIC50 4.00-4.99)
3  COCCS(=O)(=O)N1CCC(c2c[nH]c3ccccc23)CC1 [Compound 74]    +− (+− = pIC50 <4.00)
4  NC(=O)N1CCC(c2c[nH]c3ccccc23)CC1 [Compound 16]    +− (+− = pIC50 <4.00)
5  O=C(CO)N1CCC(c2c[nH]c3ccccc23)CC1 [Compound 67]    +− (+− = pIC50 <4.00)

[in] Endpoint output: SKOV3 Kynurenine cell based assay pIC50 of Cc1ccc(S(=O)(=O)N2CCC(c3c[nH]c4ccccc34)CC2)cc1 [Compound 9] . Value?
[out] + (+ = pIC50 4.00-4.99)

[in] Endpoint output: SKOV3 Kynurenine cell based assay pIC50 of COc1ccc(Cl)cc1S(=O)(=O)N1CCC(c2c[nH]c3c(C)cccc23)CC1 [Compound 45] . Value?
[out] + (+ = pIC50 4.00-4.99)

[in] Endpoint output: SKOV3 Kynurenine cell based assay pIC50 of COc1cccc2[nH]cc(C3=CCN(C(C)=O)CC3)c12 [Compound 169] . Value?
[out] + (+ = pIC50 4.00-4.99)

----------
# assaySystem: Recombinant human TDO (Homo sapiens)
# protocolDescription: hTDO biochemical coupled assay
# measurementParameters: 330 μM L-tryptophan, coupled with kynurenine formamidase
measuredAttribute: hTDO biochemical assay pIC50

Some compounds with recorded hTDO biochemical assay pIC50:
> print(dat)
                                    compound                   result
 1      CS(=O)(=O)N1CCC(c2c[nH]c3ccncc23)CC1    +− (+− = pIC50 <4.00)
 2  Cc1ccc2[nH]cc(C3CCN(S(=O)(=O)c4ccc(C(C)(C)C)cc4)CC3)c2c1    +− (+− = pIC50 <4.00)
 3  Cc1ccc(S(=O)(=O)N2CCC(c3c[nH]c4ccccc34)CC2)c(C)c1    +− (+− = pIC50 <4.00)
 4      O=C(C1CC1)N1CCC(c2c[nH]c3ccccc23)CC1    +− (+− = pIC50 <4.00)
 5   O=C(c1ccccc1)N1CCC(c2c[nH]c3ccccc23)CC1    +− (+− = pIC50 <4.00)
 6  COc1ccc2[nH]cc(C3CCN(S(=O)(=O)c4cc(C(F)(F)F)ccc4C(F)(F)F)CC3)c2c1    +− (+− = pIC50 <4.00)
 7         CC(=O)N1CCCN(c2c[nH]c3ccccc23)CC1  + (+ = pIC50 4.00-4.99)
 8     CN(C)CC(=O)N1CCC(c2c[nH]c3ccccc23)CC1  + (+ = pIC50 4.00-4.99)
 9  COc1cccc2c(C3=CCN(S(C)(=O)=O)CC3)c[nH]c12  + (+ = pIC50 4.00-4.99)
10  CCCS(=O)(=O)N1CCC(c2c[nH]c3cc(F)ccc23)CC1  + (+ = pIC50 4.00-4.99)

[in] Endpoint output: hTDO biochemical assay pIC50 of `O=C(C(F)F)N1CCC(c2c[nH]c3cc(F)ccc23)CC1` . Value?
[out] + (+ = pIC50 4.00-4.99)

[in] Endpoint output: hTDO biochemical assay pIC50 of `CC(=O)N1CC=C(c2c[nH]c3cnccc23)CC1` . Value?
[out] + (+ = pIC50 4.00-4.99)

[in] Endpoint output: hTDO biochemical assay pIC50 of `CS(=O)(=O)N1CC=C(c2c[nH]c3c(F)cccc23)CC1` . Value?
[out] +− (+− = pIC50 <4.00)

[in] Endpoint output: hTDO biochemical assay pIC50 of `O=S(=O)(C1CC1)N1CCC(c2c[nH]c3ccccc23)CC1` . Value?
[out] + (+ = pIC50 4.00-4.99)

[in] Endpoint output: hTDO biochemical assay pIC50 of `O=C(CO)N1CCC(c2c[nH]c3ccccc23)CC1` . Value?
[out] +− (+− = pIC50 <4.00)

[in] Endpoint output: hTDO biochemical assay pIC50 of `CC(=O)N1CC=C(c2c[nH]c3cccc(F)c23)CC1` . Value?
[out] + (+ = pIC50 4.00-4.99)

[in] Endpoint output: hTDO biochemical assay pIC50 of `CC(=O)N1CCC(c2c[nH]c3ccncc23)CC1` . Value?
[out] +− (+− = pIC50 <4.00)

[in] Endpoint output: hTDO biochemical assay pIC50 of Cc1[nH]c2ccccc2c1C1CCN(C(=O)C2CCCO2)CC1 (centres unmarked) . Value?
[out] +− (+− = pIC50 <4.00)

[in] Endpoint output: hTDO biochemical assay pIC50 of `CCC(=O)N1CCC(c2c[nH]c3cc(F)ccc23)CC1` . Value?
[out] + (+ = pIC50 4.00-4.99)
